Data provenance is ChEMBL document CHEMBL2331389.

Below: a set of entries, each annotated with reported pIC50.
target: Mitogen-activated protein kinase 14 (Homo sapiens, UniProt Q16539); test: Inhibition of p38alpha (unknown origin)
Sequence (Q16539 whole entry): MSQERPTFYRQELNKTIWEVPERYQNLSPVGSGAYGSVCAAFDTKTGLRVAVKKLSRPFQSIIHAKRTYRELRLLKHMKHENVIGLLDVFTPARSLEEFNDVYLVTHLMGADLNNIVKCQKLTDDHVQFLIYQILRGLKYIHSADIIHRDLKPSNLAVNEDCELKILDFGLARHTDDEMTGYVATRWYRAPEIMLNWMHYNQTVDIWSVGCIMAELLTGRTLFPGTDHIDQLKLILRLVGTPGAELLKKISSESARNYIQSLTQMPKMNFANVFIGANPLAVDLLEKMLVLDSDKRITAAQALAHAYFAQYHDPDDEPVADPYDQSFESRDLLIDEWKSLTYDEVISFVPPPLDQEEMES
pIC50: −log10 of the molar value.
Property Label: pIC50

| Smiles Text | Readout Value |
| --- | --- |
| CCc1ccc(-c2ccc3c(c2)-c2n[nH]cc2S(=O)(=O)N3C)cc1 | < 5.00 |
| CCc1ccc(-c2ccc3c(c2)-c2c(cnn2C)S(=O)(=O)N3C)cc1 | < 5.00 |
| CN1c2ccc(NCc3ccc(C(C)(C)C)cc3)cc2-c2c(cnn2C)S1(=O)=O | < 5.00 |

###

Entries below carry reported pIC50 on RAC-alpha serine/threonine-protein kinase (Homo sapiens, UniProt P31749).
Sequence (P31749 whole entry): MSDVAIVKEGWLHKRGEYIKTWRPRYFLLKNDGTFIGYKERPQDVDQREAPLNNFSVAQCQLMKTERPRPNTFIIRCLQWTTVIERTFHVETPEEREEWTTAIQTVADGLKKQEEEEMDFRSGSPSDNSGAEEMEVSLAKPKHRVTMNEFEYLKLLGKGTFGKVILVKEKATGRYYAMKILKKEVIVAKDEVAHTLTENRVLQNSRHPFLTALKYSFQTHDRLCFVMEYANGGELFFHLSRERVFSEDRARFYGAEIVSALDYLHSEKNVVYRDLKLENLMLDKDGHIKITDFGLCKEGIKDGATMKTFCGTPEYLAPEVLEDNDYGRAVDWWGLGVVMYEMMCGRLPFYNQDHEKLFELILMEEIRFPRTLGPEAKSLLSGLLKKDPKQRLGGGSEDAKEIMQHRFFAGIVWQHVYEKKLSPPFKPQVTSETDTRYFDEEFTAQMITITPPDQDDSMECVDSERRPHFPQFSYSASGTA
pIC50: −log10 of the molar value.
Property Label: pIC50

| Smiles Text | Property Label | Readout Value |
| --- | --- | --- |
| CCc1ccc(-c2ccc3c(c2)-c2n[nH]cc2S(=O)(=O)N3C)cc1 | pIC50 | < 5.00 |
| CCc1ccc(-c2ccc3c(c2)-c2c(cnn2C)S(=O)(=O)N3C)cc1 | pIC50 | < 5.00 |

###

target: Aurora kinase B (Homo sapiens)
Sequence (Q96GD4 whole entry): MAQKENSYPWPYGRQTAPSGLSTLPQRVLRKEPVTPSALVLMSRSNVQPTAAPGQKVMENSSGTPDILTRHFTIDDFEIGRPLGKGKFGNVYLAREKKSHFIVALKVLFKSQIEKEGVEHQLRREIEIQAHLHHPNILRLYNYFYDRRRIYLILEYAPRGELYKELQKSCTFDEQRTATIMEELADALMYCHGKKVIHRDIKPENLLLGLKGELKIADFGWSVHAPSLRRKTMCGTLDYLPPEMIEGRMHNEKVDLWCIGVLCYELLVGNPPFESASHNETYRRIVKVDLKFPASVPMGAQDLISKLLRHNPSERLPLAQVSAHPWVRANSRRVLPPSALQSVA
pIC50: −log10 of the molar value.

| Smiles Text | pIC50 |
| --- | --- |
| CCc1ccc(-c2ccc3c(c2)-c2c(cnn2C)S(=O)(=O)N3C)cc1 | < 5.00 |

###

biological target: Focal adhesion kinase 1 (Homo sapiens, UniProt Q05397)
Sequence (Q05397 whole entry): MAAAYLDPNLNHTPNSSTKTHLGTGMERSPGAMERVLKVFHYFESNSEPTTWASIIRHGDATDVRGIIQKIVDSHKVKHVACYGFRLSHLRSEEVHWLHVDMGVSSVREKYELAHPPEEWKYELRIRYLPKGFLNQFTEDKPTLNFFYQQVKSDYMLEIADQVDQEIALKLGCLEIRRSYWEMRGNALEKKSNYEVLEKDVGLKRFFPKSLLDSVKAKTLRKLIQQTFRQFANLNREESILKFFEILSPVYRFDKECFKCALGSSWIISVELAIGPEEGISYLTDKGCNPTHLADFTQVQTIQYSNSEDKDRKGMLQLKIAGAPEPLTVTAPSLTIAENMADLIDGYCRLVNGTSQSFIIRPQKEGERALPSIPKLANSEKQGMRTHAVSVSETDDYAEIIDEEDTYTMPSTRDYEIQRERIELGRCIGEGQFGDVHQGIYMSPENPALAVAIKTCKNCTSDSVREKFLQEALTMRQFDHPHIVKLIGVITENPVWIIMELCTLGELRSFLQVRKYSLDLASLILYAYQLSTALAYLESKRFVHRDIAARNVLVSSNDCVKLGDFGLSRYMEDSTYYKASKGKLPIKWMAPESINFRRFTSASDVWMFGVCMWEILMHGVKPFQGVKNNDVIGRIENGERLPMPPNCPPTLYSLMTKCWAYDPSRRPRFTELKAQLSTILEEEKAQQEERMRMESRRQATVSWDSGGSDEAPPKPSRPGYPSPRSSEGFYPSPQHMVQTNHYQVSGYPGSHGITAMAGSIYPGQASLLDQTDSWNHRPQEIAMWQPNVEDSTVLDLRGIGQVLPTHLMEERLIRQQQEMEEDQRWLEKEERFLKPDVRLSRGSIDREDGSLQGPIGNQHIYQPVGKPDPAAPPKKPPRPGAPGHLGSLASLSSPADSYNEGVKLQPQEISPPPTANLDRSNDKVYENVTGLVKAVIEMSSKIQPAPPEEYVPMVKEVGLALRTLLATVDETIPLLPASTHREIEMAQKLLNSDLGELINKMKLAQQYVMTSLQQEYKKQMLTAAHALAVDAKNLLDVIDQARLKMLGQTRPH
Below: a set of entries, each annotated with reported IC50.

| Smiles Text | Comparison Sign | IC50, nM |
| --- | --- | --- |
| CN1c2ccc(C(=O)Nc3ccc(F)cc3)cc2-c2c(cnn2C)S1(=O)=O | > | 30000 |
| CCc1ccc(-c2ccc3c(c2)-c2nn(C)cc2S(=O)(=O)N3C)cc1 | > | 30000 |
| CCc1ccc(-c2ccc3c(c2)-c2c(cnn2C)S(=O)(=O)N3C)cc1 | = | 77 |
| CCc1ccc(-c2ccc3c(c2)-c2c(cnn2CC)S(=O)(=O)N3C)cc1 | = | 2100 |

###

Below: a set of entries, each annotated with reported pIC50.
biological target: Proto-oncogene tyrosine-protein kinase Src (Homo sapiens, UniProt P12931)
Sequence (P12931 2-536 limits assumed): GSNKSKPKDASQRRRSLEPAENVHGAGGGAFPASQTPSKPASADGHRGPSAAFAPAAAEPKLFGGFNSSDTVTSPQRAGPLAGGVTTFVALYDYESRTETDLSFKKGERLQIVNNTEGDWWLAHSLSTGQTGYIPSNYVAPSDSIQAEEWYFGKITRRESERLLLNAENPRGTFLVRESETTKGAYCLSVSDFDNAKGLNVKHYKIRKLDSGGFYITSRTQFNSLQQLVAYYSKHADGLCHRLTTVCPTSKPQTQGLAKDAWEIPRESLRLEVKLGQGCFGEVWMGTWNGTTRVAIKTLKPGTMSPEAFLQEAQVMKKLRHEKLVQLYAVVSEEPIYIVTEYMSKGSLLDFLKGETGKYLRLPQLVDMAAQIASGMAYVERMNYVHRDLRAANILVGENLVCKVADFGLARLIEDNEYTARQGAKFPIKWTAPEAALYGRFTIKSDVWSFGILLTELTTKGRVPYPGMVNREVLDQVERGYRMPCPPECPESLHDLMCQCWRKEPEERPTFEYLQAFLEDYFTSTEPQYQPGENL
pIC50: −log10 of the molar value.

| Smiles Text | pIC50 |
| --- | --- |
| CCc1ccc(-c2ccc3c(c2)-c2n[nH]cc2S(=O)(=O)N3C)cc1 | < 5.00 |
| CCc1ccc(-c2ccc3c(c2)-c2c(cnn2C)S(=O)(=O)N3C)cc1 | < 5.00 |

###

target: Focal adhesion kinase 1 (Homo sapiens, UniProt Q05397)
pIC50: −log10 of the molar value.

| Smiles Text | pIC50 |
| --- | --- |
| CCc1ccc(-c2ccc3c(c2)-c2c(cnn2C)S(=O)(=O)N3C)cc1 | 6.38 |

###

molecular target: Dual specificity mitogen-activated protein kinase kinase 1 (Homo sapiens, UniProt Q02750); assay: Inhibition of MEK1 (unknown origin)
Sequence (Q02750 whole entry): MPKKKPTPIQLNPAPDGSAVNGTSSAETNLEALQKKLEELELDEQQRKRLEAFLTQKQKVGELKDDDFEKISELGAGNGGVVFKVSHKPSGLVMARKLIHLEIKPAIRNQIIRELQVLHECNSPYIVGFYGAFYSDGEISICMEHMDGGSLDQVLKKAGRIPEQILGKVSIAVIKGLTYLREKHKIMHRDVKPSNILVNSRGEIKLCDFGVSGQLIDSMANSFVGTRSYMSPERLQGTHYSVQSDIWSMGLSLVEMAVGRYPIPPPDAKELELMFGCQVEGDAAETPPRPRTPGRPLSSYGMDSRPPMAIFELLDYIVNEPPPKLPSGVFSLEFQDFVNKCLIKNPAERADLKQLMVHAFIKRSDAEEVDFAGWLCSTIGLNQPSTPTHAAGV
Below: a set of entries, each annotated with reported IC50.

| Smiles Text | IC50 |
| --- | --- |
| CCc1ccc(-c2ccc3c(c2)-c2n[nH]cc2S(=O)(=O)N3C)cc1 | 8.6 µM |
| CN1c2ccc(NCc3ccc(C(C)(C)C)cc3)cc2-c2c(cnn2C)S1(=O)=O | > 10 µM |
| CCc1ccc(-c2ccc3c(c2)-c2c(cnn2C)S(=O)(=O)N3C)cc1 | > 10 µM |
